Experiment: Solubility of compound (Ic) in lipids, surfactants and pharmaceutical cosolvents
Format: physicochemical
Conditions: oil or lipid; in Imwitor 742 (Glyceryl mono-dicaprylate/caprate); read-out: solubility
Measured quantity: solubility (mg/mL)
Field: numeric (mg/mL). Do not append units.

Reported solubility ( CS(=O)(=O)C(=C1CN(C(c2ccc(Cl)cc2)c2ccc(Cl)cc2)C1)c1cc(F)cc(F)c1 [Compound (Ic)] ) = 31.2

* * *

Assay: Solubility of compound (Ic) in lipids, surfactants and pharmaceutical cosolvents
Format: physicochemical
Conditions: oil or lipid; in Imwitor 988 (Glyceryl mono-dicaprylate); read-out: solubility
Measured quantity: solubility (mg/mL)
Field: numeric (mg/mL). Do not append units.

Reported solubility ( CS(=O)(=O)C(=C1CN(C(c2ccc(Cl)cc2)c2ccc(Cl)cc2)C1)c1cc(F)cc(F)c1 [Compound (Ic)] ) = 41.2
